measured_target: DNA repair protein RAD51 homolog 1 (Homo sapiens)
measurement_protocol: blockers of RAD51-mediated homologous recombination – biochemical, fluorescence, primary screen (AID 1385);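 also: 0% = DMSO control wells and 100% = blanks with heterologous ssDNA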
stated_conditions: hRad51 DNA strand exchange, fluorescence dequenching; at 10 µM; hits give high values
Screen size: about 200,000 compounds; about 170 (0.085%) were called active. Many of the other results were omitted from the sample, so actives are more common in it than they were.
observation_type: inhibition (%)
Report as a plain number; the unit % is understood.

// solved cases for inhibition follow
>  <compound>
CCOC(=O)c1c(N)sc2c1CCCC2=O

>  <unit>
%

>  <inhibition>
10.5

$$$$
>  <compound>
C/C(Cc1ccccc1)=N\NC(=O)CNC(=O)c1ccccc1Cl

>  <unit>
%

>  <inhibition>
11.3

$$$$
>  <compound>
N#CC1=C(N)Oc2c(ccc3cccnc23)C1c1ccncc1 (stereo unspecified)

>  <unit>
%

>  <inhibition>
12.7

$$$$
>  <compound>
Cc1cc(N)n(-c2ccc(S(=O)(=O)N3CCCC3)cc2[N+](=O)[O-])n1

>  <unit>
%

>  <inhibition>
4.97

$$$$

Problem: // query inhibition value for entry `Cc1cc(=O)oc2c(C(=O)c3ccccc3)c(OCC(N)=O)ccc12`
Solution: -5.93

Problem: Param item: `Nc1c(Cl)cc(S(N)(=O)=O)cc1S(N)(=O)=O`
Solution: 3.22

Problem: Also `CCOC(=O)CN(C(=O)COc1nc(C)cc(C)c1C#N)c1ccc(Cl)cc1` , if possible.
Solution: 1.01

Problem: Then `COC(=O)c1cc(C(=O)OCC(=O)Nc2cc(C)on2)cc([N+](=O)[O-])c1` ?
Solution: -19.8

Problem: Now the compound Cn1c2c(c(=O)n(C)c1=O)C(c1cccc(F)c1)C(C#N)=C(N)O2 (stereo unspecified)
Solution: 1.62

Problem: Consider next the compound `Cc1ccc(NC(=O)C/C(N)=N/O)cc1Cl` in the same way.
Solution: -4.43

Problem: Also `Cc1ccc(N2C(=O)CN=C2Nc2nc(C)cc(C)n2)cc1` , if possible.
Solution: 7.92

* * *

measured_target: DNA repair protein RAD51 homolog 1 (Homo sapiens)
measurement_protocol: blockers of RAD51-mediated homologous recombination – biochemical, fluorescence, primary screen (AID 1385);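 also: 0% = DMSO control wells and 100% = blanks with heterologous ssDNA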
stated_conditions: hRad51 DNA strand exchange, fluorescence dequenching; at 10 µM; hits give high values
Among all 200,000 compounds or so, about 170 (0.085%) were called active. This is one part of a sample in which actives are shown more often than they occur.
observation_type: inhibition (%)
Supply the numeric figure in %, leaving out any unit text.

Consider the following illustrative entries.
>  <test_smiles>
CC(C)S(=O)(=O)c1csc(NC(=O)Nc2ccc(Cl)cc2)c1Cl

>  <observed>
-3.14

$$$$
>  <test_smiles>
CCOc1cc2c(Cl)ncnc2c(OCC)c1OCC

>  <observed>
-5.3

$$$$
>  <test_smiles>
COc1ccc(/C(C)=N/N2CCOCC2)c(O)c1

>  <observed>
16.1

$$$$

Field: next molecule
Problem: Given `CN(C)CCCN(Cc1cc2cc3c(cc2[nH]c1=O)OCCO3)C(=O)NC1CCCCC1` , state its recorded inhibition.
Solution: 0.9

* * *

measured_target: DNA repair protein RAD51 homolog 1 (Homo sapiens) (UniProt Q06609)
Sequence (Q06609 whole entry, looked up): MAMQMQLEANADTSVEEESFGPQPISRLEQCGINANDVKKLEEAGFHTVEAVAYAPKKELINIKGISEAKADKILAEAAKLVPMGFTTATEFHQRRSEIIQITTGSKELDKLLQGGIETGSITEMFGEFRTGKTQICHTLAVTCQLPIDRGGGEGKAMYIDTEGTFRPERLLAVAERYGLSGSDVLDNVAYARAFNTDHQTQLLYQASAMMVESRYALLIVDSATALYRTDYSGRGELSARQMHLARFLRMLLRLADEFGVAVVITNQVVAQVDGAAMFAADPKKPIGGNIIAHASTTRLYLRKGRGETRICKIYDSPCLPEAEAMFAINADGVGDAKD
measurement_protocol: blockers of RAD51-mediated homologous recombination – biochemical, fluorescence, primary screen (AID 1385);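 also: 0% = DMSO control wells and 100% = blanks with heterologous ssDNA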
stated_conditions: hRad51 DNA strand exchange, fluorescence dequenching; at 10 µM; hits give high values
Hit rate of the full screen: of about 200,000 compounds, about 170 (0.085%) were called active. Only a selection was taken, and actives are over-represented in it overall.
observation_type: inhibition (%)
Write the value in % as a bare number.

These solved cases illustrate the format of a correct answer.
>  <compound>
COc1ccc(OC)c(NC(=O)N[C@H](Cc2ccccc2)C(=O)NN)c1

>  <observed>
19

$$$$
>  <compound>
O=C(CCl)Nc1cccc(CP(=O)(c2ccccc2)c2ccccc2)c1

>  <observed>
3.48

$$$$
>  <compound>
COC(=O)c1ccc(C(NC(=O)OCc2ccccc2)/C(F)=C/[C@@H](C)C(=O)O)cc1 (some centres undefined)

>  <observed>
-2.27

$$$$

Alright, here's another compound for you.
Problem: Give DNA repair protein RAD51 homolog 1 (Homo sapiens) (UniProt Q06609) inhibition for CC(O)c1nc2c(c(=O)n(C)c(=O)n2C)n1C (centres undefined)
Solution: -23.8

* * *

measured_target: DNA repair protein RAD51 homolog 1 (Homo sapiens)
measurement_protocol: blockers of RAD51-mediated homologous recombination – biochemical, fluorescence, primary screen (AID 1385);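 also: 0% = DMSO control wells and 100% = blanks with heterologous ssDNA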
stated_conditions: hRad51 DNA strand exchange, fluorescence dequenching; at 10 µM; hits give high values
Out of some 200,000 compounds screened, about 170 (0.085%) were called active. The full list was thinned out, with actives kept by preference.
observation_type: inhibition (%)
Output spec: scalar in %, unitless text.

Consider the following illustrative entries.
>  <test_smiles>
Cc1c(CCC(=O)O)c(=O)oc2cc3occ(-c4ccccc4)c3cc12

>  <observed>
3.32

$$$$
>  <test_smiles>
COC(=O)[C@H](Cc1ccccc1)NC(=O)Nc1ccc(OC)cc1

>  <observed>
7.38

$$$$

Next item in the queue.
Problem: Recorded inhibition of `Cc1nc(-c2ccccc2)sc1-c1nnc(C2CC2)o1` , please.
Solution: 13.8
